Target: CDK6 (Homo sapiens, UniProt Q00534)
Sequence (Q00534 whole entry): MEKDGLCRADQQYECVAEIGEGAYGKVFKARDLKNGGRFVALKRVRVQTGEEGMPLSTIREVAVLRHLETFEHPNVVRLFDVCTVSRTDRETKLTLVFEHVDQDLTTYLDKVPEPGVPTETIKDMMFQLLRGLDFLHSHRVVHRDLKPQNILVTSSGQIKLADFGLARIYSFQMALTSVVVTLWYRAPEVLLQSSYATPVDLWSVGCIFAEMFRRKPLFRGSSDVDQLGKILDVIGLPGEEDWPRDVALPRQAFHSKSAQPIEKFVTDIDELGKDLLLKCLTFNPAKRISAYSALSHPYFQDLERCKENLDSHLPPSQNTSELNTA
Sequence (P24385 whole entry partner): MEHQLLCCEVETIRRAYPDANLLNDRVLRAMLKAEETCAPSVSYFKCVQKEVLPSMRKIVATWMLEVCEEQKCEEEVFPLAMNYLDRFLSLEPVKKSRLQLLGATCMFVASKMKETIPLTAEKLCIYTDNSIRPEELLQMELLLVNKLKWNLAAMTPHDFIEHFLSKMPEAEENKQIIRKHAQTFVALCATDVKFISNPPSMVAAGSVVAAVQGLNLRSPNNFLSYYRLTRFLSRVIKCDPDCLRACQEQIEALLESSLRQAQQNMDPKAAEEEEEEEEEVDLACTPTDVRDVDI
Test: CDK6 biochemical assay (33P-ATP filter-binding kinase assay)
Details: assay conditions described herein; read-out: IC50 CDK6 biochemical assay
pIC50: −log10 of the molar value.
Value Kind: pIC50

Reported pIC50 for CC(=O)c1c(C)c2nc(Nc3ccc(N4CCNCC4)cn3)ncc2n(C2CCCC2)c1=O [Compound 34] was > 8.70
